TEST_METHOD_NOTES: chemical genetic growth profiling, strain panel (AID 1159580);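 also: tested at 20 µM; growth read once vehicle control cultures reached saturation at 30 °C; 1 = growth at the plate median or of vehicle wells; lower values mean less growth of the strain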
DETAILS: S. cerevisiae deletion strains, growth OD, locus YNL183C, strain NPR1, hits give low values
About 2,000 (36%) of roughly 5,500 compounds were called active. Roughly 18% stayed inconclusive and do not appear here. The list shows a part of the results.

| COMPOUND | normalized growth |
| --- | --- |
| CC(=O)O[C@H]1CC[C@@]2(C)C(=CCC3C2CC[C@@]2(C)C3CC[C@@H]2C(C)CCCC(C)C)C1 (some centres not stated) | 0.906 (inactive) |
| C[C@@]12C(=O)OC(=O)[C@]1(C)C1CCC2O1 | 0.0569 (active) |
| O=C(O)c1cc(=O)c(O)c2c(O)c(O)c(O)cc2c1 | 0.243 (active) |
| COc1cc(C(=O)O)cc(OC)c1O | 0.979 (inactive) |
| O=C(O)c1cc(=O)c(O)c2c(O)c(O)ccc2c1 | 0.907 (inactive) |
| N[C@@H](CCC(=O)N[C@@H](CCSC(CC(=O)O)C(=O)O)C(=O)NCC(=O)O)C(=O)O (some centres not stated) | 0.937 (inactive) |
| O=C1/C(=C/c2c(F)cccc2Cl)Cc2ccccc21 | 0.9 (inactive) |

----------
TEST_METHOD_NOTES: chemical genetic growth profiling, strain panel (AID 1159580)
DETAILS: S. cerevisiae deletion strains, growth OD, locus YLL041C, strain sdh2, hits give low values
Screen size: about 5,500 compounds; about 2,000 (36%) were called active. Inconclusive results (about 18%) are left out. This is one part of the list.
So basically: is normalized growth under 1? Then 1 (yes). Not under? Then 0 (no).

| COMPOUND | CATEGORY_LABEL |
| --- | --- |
| CC[C@@H]1[C@@H](O)N2C3C[C@H]1C1C(O)[C@]4(C[C@@H]12)c1ccccc1N(C)[C@@H]34 (some centres undefined) | 0 (no) |
| CC1=C(/C=C/C(C)=C/C=C/C(C)=C/C=C/C=C(C)/C=C/C=C(C)/C=C/C2=C(C)CCCC2(C)C)C(C)(C)CCC1 | 0 (no) |
| CN(Cc1cnc2nc(N)nc(N)c2n1)c1ccc(C(=O)NC(CCC(=O)O)C(=O)O)cc1 (centres undefined) | 1 (yes) |

----------
TEST_METHOD_NOTES: chemical genetic growth profiling, strain panel (AID 1159580)
DETAILS: S. cerevisiae deletion strains, growth OD, locus YKL193C, strain SDS22
Out of some 5,500 compounds screened, about 2,000 (36%) were called active. Not shown: some 18% with an inconclusive outcome. Cut-off read from the data, not from the text of the source: active = normalized growth mostly below about 0.91 (no sharp cut-off); inconclusive = no clear call, values can overlap the other calls; inactive = mostly above about 0.92. The list shows a part of the results.
Classes used: active, inactive

| MOLECULE | CATEGORY_LABEL |
| --- | --- |
| O=C(Nc1cccc(C(F)(F)F)c1)Oc1ccc(F)cc1Cl | inactive |
| CN(C)/C=C/C(=O)c1ccc(C#Cc2ccccc2)cc1 | inactive |
| CC(C)(O)C#Cc1ccc(/C=N\Nc2ccccc2)cc1 | inactive |
| NC(=NC(=O)c1ccc(Cl)cc1)c1cccs1 | inactive |
| CC1(C)C/C(=N/Nc2ccc(C(F)(F)F)cc2)c2cc(C(C)(C)C)c(O)c(O)c2O1 | inactive |
| Nc1cc(-c2ccc(OC(F)(F)F)cc2)nn1-c1ccc(Cl)c(Cl)c1 | inactive |
| N#CC1=C(N)C(C#N)(C#N)C2(CCCCC2)C2CCCC=C12 (configuration not stated) | inactive |
| N/C(=N/OC(=O)c1ccc(Cl)cc1)c1ccc(F)cc1F | active |
| CSc1c(C#N)c(-c2ccc(Cl)cc2)nn1C(=O)c1ccccc1Cl | inactive |
| O=C(CO/N=C\c1ccc(Cl)cc1Cl)NNC(=S)Nc1cc(Cl)ccc1Cl | inactive |
| CCOC(=O)c1c(N=Cc2cc(Br)c(Br)cc2O)sc2c1CCCC2 | inactive |
| Clc1ccc(-c2noc(CSC3=NCCN3)n2)cc1 | inactive |

----------
TEST_METHOD_NOTES: chemical genetic growth profiling, strain panel (AID 1159580);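 also: tested at 20 µM; growth read once vehicle control cultures reached saturation at 30 °C; 1 = growth at the plate median or of vehicle wells; lower values mean less growth of the strain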
DETAILS: S. cerevisiae deletion strains, growth OD, locus YOR070C, strain gyp1, hits give low values
About 2,000 (36%) of roughly 5,500 compounds were called active. Roughly 18% stayed inconclusive and do not appear here. Some of the results follow.

| MOLECULE | normalized growth |
| --- | --- |
| C=CC1=C(C)/C(=C/c2[nH]c(Cc3[nH]c(/C=C4\NC(=O)C(C)=C4C=C)c(C)c3CCC(=O)O)c(CCC(=O)O)c2C)NC1=O | 0.996 |
| O=C(O)c1cc(=O)c(O)c2c(O)c(O)c(O)cc2c1 | 0.849 |
| C[C@@H]1C[C@@H]([C@H](O)CC2CC(=O)NC(=O)C2)C(=O)[C@@H](C)C1 | 0.056 |
| O=C(O)c1cc(O)c(O)c(O)c1 | 1.02 |
| CCCNC(C)C(=O)Nc1ccccc1C (stereo not given) | 1 |

----------
TEST_METHOD_NOTES: chemical genetic growth profiling, strain panel (AID 1159580);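 also: tested at 20 µM; growth read once vehicle control cultures reached saturation at 30 °C; 1 = growth at the plate median or of vehicle wells; lower values mean less growth of the strain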
DETAILS: S. cerevisiae deletion strains, growth OD, locus YHR142W, strain chs7, hits give low values
Screen size: about 5,500 compounds; about 2,000 (36%) were called active. Roughly 18% stayed inconclusive and do not appear here. Some of the results follow.
VALUE_TYPE: normalized growth

| COMPOUND | NUMERIC_VALUE |
| --- | --- |
| CCCN(CCC)CCc1cccc2c1CC(=O)N2 | 0.952 |
| CCOC(=O)C(C)(N)Cc1ccc(O)c(O)c1 (centres undefined) | 0.989 |
| COP(=S)(OC)Oc1ccc(SC)c(C)c1 | 0.912 |
| CC[C@]12CCCN3CCc4c(n(c5ccccc45)C(=O)C1)[C@@H]32 | 1.01 |
| COc1ccc(/C=C/C(=O)O)cc1OC | 0.993 |
| COc1ccc(/C=C/C(=O)c2ccc(O)cc2O)cc1 | 0.175 |
| Nc1ccc(S(=O)(=O)Nc2nccs2)cc1 | 1.01 |
| OC1CCCCC1N1CCC(c2ccccc2)CC1 (centres undefined) | 1.01 |
| COc1ccc(/C=C/C(=O)c2cc(O)ccc2O)cc1 | 0.101 |
| CC(Cc1ccc(O)c(O)c1)(NN)C(=O)O (centres undefined) | 1.02 |
| CCOP(=S)(OCC)Oc1ccc2c(C)c(Cl)c(=O)oc2c1 | 0.912 |
| C[C@](N)(Cc1ccc(O)c(O)c1)C(=O)O | 0.913 |
| CCN(CC)CCOC(=O)C(Cc1cccc2ccccc12)CC1CCCO1 (centres undefined) | 1.02 |
| C[C@](N)(Cc1ccc(O)cc1)C(=O)O | 1.01 |
| CO[C@@H]1[C@@H](O[C@@H]2O[C@H](C)[C@@H](O[C@H]3C[C@@](C)(O)[C@H](O)[C@H](C)O3)[C@H](N(C)C)[C@H]2O)[C@@H](CC=O)C[C@@H](C)[C@@H](O[C@H]2CC[C@H](N(C)C)[C@@H](C)O2)/C=C/C=C/C[C@H](C)OC(=O)C[C@H]1O | 1 |
| C=CCN1CC[C@]23c4c5ccc(O)c4OC2C(=O)CC[C@@]3(O)[C@H]1C5 (some centres undefined) | 0.946 |
| CCOC(=O)C1=C[C@]2(CC)CCCN3CCc4c(n1c1ccccc41)[C@@H]32 | 1.01 |
| COc1cc(/C=C/C(=O)O)cc(OC)c1OC | 0.986 |
| Cc1ccc(C(C)C)cc2c(C)ccc1-2 | 1.02 |

----------
# normalized growth per record follows
TEST_METHOD_NOTES: chemical genetic growth profiling, strain panel (AID 1159580);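 also: tested at 20 µM; growth read once vehicle control cultures reached saturation at 30 °C; 1 = growth at the plate median or of vehicle wells; lower values mean less growth of the strain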
DETAILS: S. cerevisiae deletion strains, growth OD, locus YGL227W, strain vid30, hits give low values
In all, about 5,500 compounds went through this assay and about 2,000 (36%) were called active. Not shown: some 18% with an inconclusive outcome. The list shows a part of the results.

| COMPOUND | normalized growth |
| --- | --- |
| COc1ccc(-c2cc(C(F)F)nn2-c2ccc(S(N)(=O)=O)cc2)cc1F | 1.01 |
| Nc1nccs1 | 0.991 |
| c1ccc2[nH]c(-c3cscn3)nc2c1 | 1.02 |
| C[C@@H]1CC2C3CCC4=CC(=O)C=C[C@]4(C)[C@@]3(F)[C@@H](O)C[C@]2(C)[C@@]1(O)C(=O)COP(=O)(O)O (stereo partly specified) | 0.972 |
| Cc1ccc(C(C)C)cc2c(C)ccc1-2 | 1.01 |
| CCCNC(C)C(=O)Nc1ccccc1C (stereo unspecified) | 1 |
| CN(C)CCCO[C@H]1[C@@H](C(O)CO)OC2OC(C)(C)O[C@@H]21 (stereo partly specified) | 0.987 |
| C[C@]12CCC3c4ccc(OS(=O)(=O)O)cc4CCC3C1CCC2=O (stereo partly specified) | 0.981 |
| Nc1ccc(S(=O)(=O)Nc2nccs2)cc1 | 1.02 |
| CO[C@@H]1[C@@H](O[C@@H]2O[C@H](C)[C@@H](O[C@H]3C[C@@](C)(O)[C@H](O)[C@H](C)O3)[C@H](N(C)C)[C@H]2O)[C@@H](CC=O)C[C@@H](C)[C@@H](O[C@H]2CC[C@H](N(C)C)[C@@H](C)O2)/C=C/C=C/C[C@H](C)OC(=O)C[C@H]1O | 1.02 |
| C#C[C@]1(O)CCC2C3CCc4cc(O)ccc4C3CC[C@@]21C (stereo partly specified) | 1.05 |
